These data points were gathered from patent US7118895B2.

# Test system: Crude diglycosidase
# measurement_notes: Examination of substrate concentration in the conversion into isoflavone aglycons by diglycosidase using soybean materials;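 on Decomposition efficiency: ratio of each glycoside/aglycon within its isoflavone family: percent of the isoflavone family total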
# Assay type: biochemical, Penicillium multicolor IAM7153
# details: roasted soy flour, substrate concentration 30%, heat treatment of enzyme no, reaction time 1 h
Reported Decomposition efficiency: ratio of each glycoside/aglycon within its isoflavone family by item:
reported_metric: Decomposition efficiency: ratio of each glycoside/aglycon within its isoflavone family (%)

| compound | value_measured |
| --- | --- |
| COc1cc2c(=O)c(-c3ccc(O)cc3)coc2cc1O[C@@H]1O[C@H](COC(C)=O)[C@@H](O)[C@H](O)[C@H]1O [acetylglycitin, 6″-O-acetylglycitin] | 28.4 |
| CC(=O)OC[C@H]1O[C@@H](Oc2ccc3c(=O)c(-c4ccc(O)cc4)coc3c2)[C@H](O)[C@@H](O)[C@@H]1O [acetyldaidzin, 6″-O-acetyldaidzin] | 46.4 |
| O=c1c(-c2ccc(O)cc2)coc2cc(O[C@@H]3O[C@H](CO)[C@@H](O)[C@H](O)[C@H]3O)cc(O)c12 [genistin] | 5.7 |

====

This listing pairs molecules with measured Decomposition efficiency of glycitin family in defatted soybean.
# Tested on: Crude diglycosidase
# measurement_notes: Examination of pH in the conversion into isoflavone aglycons by diglycosidase using soybean materials
# Assay type: biochemical, Penicillium multicolor IAM7153
# details: pH4.8; heat treatment of enzyme: no; reaction time 0 h
reported_metric: Decomposition efficiency of glycitin family in defatted soybean (%)

| given_smiles | quantity_unit | value_measured |
| --- | --- | --- |
| COc1cc2c(=O)c(-c3ccc(O)cc3)coc2cc1O | % | 36.0 |
| COc1cc2c(=O)c(-c3ccc(O)cc3)coc2cc1O[C@@H]1O[C@H](COC(=O)CC(=O)O)[C@@H](O)[C@H](O)[C@H]1O | % | 64.0 |

====

Listing of entries alongside the reported Decomposition efficiency of genistin family in defatted soybean.
# Tested on: Crude diglycosidase
# measurement_notes: Examination of substrate concentration in the conversion into isoflavone aglycons by diglycosidase using soybean materials
# Format: biochemical, Penicillium multicolor IAM7153
# details: substrate concentration 2%, heat treatment of enzyme no, reaction time 1 h
reported_metric: Decomposition efficiency of genistin family in defatted soybean

| compound | value_measured |
| --- | --- |
| O=c1c(-c2ccc(O)cc2)coc2cc(O)cc(O)c12 [genistein] | 68.6 |
| O=C(O)CC(=O)OC[C@H]1O[C@@H](Oc2cc(O)c3c(=O)c(-c4ccc(O)cc4)coc3c2)[C@H](O)[C@@H](O)[C@@H]1O [malonylgenistin, 6″-O-malonylgenistin] | 31.4 |

====

# System: Crude diglycosidase
# measurement_notes: Examination of pH in the conversion into isoflavone aglycons by diglycosidase using soybean materials
# Assay type: biochemical, Penicillium multicolor IAM7153
# details: pH4, heat treatment of enzyme no, reaction time 1 h, 55° C.
reported_metric: Decomposition efficiency of glycitin family in roasted soy flour

| given_smiles | value_measured |
| --- | --- |
| COc1cc2c(=O)c(-c3ccc(O)cc3)coc2cc1O[C@@H]1O[C@H](CO)[C@@H](O)[C@H](O)[C@H]1O | not detected |
| COc1cc2c(=O)c(-c3ccc(O)cc3)coc2cc1O[C@@H]1O[C@H](COC(=O)CC(=O)O)[C@@H](O)[C@H](O)[C@H]1O | not detected |
| COc1cc2c(=O)c(-c3ccc(O)cc3)coc2cc1O | 81.2 |
| COc1cc2c(=O)c(-c3ccc(O)cc3)coc2cc1O[C@@H]1O[C@H](COC(C)=O)[C@@H](O)[C@H](O)[C@H]1O | 18.8 |

====

List of aglycon values.
# System: Diglycosidase derived from P. multicolor
# measurement_notes: Reactivity toward various isoflavone glycosides (HPLC)
# Format: biochemical, Penicillium multicolor
# Design: unit not given here
# details: Reaction time 1 h; 55 °C, pH 4.0

| given_smiles | aglycon |
| --- | --- |
| O=c1c(-c2ccc(O)cc2)coc2cc(O[C@@H]3O[C@H](CO)[C@@H](O)[C@H](O)[C@H]3O)ccc12 | 70.1 |
| COc1cc2c(=O)c(-c3ccc(O)cc3)coc2cc1O[C@@H]1O[C@H](CO)[C@@H](O)[C@H](O)[C@H]1O | 97.9 |
| O=C(O)CC(=O)OC[C@H]1O[C@@H](Oc2ccc3c(=O)c(-c4ccc(O)cc4)coc3c2)[C@H](O)[C@@H](O)[C@@H]1O | 50.8 |

====

# Tested on: Crude diglycosidase
# measurement_notes: Examination of temperature in the conversion into isoflavone aglycons by diglycosidase using soybean materials
# Type: biochemical, Penicillium multicolor IAM7153
# Parameters: concentration or dose not given beside the values
# details: 55 °C; heat treatment of enzyme: no; 3 h
reported_metric: Decomposition efficiency of daidzin family in roasted soy flour (%)

| given_smiles | value_measured |
| --- | --- |
| CC(=O)OC[C@H]1O[C@@H](Oc2ccc3c(=O)c(-c4ccc(O)cc4)coc3c2)[C@H](O)[C@@H](O)[C@@H]1O | 32.5 |
| O=c1c(-c2ccc(O)cc2)coc2cc(O)ccc12 | 67.5 |

====

# Test system: Crude diglycosidase
# measurement_notes: Examination of pH in the conversion into isoflavone aglycons by diglycosidase using soybean materials
# Assay type: biochemical, Penicillium multicolor IAM7153
# details: pH6.2, heat treatment of enzyme no, reaction time 3 h, 55° C.
The entries below come with measured Decomposition efficiency of glycitin family in soymilk values attached.
reported_metric: Decomposition efficiency of glycitin family in soymilk

| given_smiles | measured_target | value_measured |
| --- | --- | --- |
| COc1cc2c(=O)c(-c3ccc(O)cc3)coc2cc1O | Crude diglycosidase | 65.5 |
| COc1cc2c(=O)c(-c3ccc(O)cc3)coc2cc1O[C@@H]1O[C@H](COC(=O)CC(=O)O)[C@@H](O)[C@H](O)[C@H]1O | Crude diglycosidase | 34.5 |

====

# Test system: β-Xylosidase derived from pectinase G
# measurement_notes: Reactivity toward various isoflavone glycosides (HPLC)
# Format: biochemical
# Design: unit not given here
# details: Reaction time 3 h; 55 °C, pH 4.0
reported_metric: aglycon

| given_smiles | measured_target | value_measured |
| --- | --- | --- |
| CC(=O)OC[C@H]1O[C@@H](Oc2cc(O)c3c(=O)c(-c4ccc(O)cc4)coc3c2)[C@H](O)[C@@H](O)[C@@H]1O | β-Xylosidase derived from pectinase G | 0.2 |
| CC(=O)OC[C@H]1O[C@@H](Oc2ccc3c(=O)c(-c4ccc(O)cc4)coc3c2)[C@H](O)[C@@H](O)[C@@H]1O | β-Xylosidase derived from pectinase G | 1.3 |
| O=C(O)CC(=O)OC[C@H]1O[C@@H](Oc2ccc3c(=O)c(-c4ccc(O)cc4)coc3c2)[C@H](O)[C@@H](O)[C@@H]1O | β-Xylosidase derived from pectinase G | 1.6 |
| O=c1c(-c2ccc(O)cc2)coc2cc(O[C@@H]3O[C@H](CO)[C@@H](O)[C@H](O)[C@H]3O)cc(O)c12 | β-Xylosidase derived from pectinase G | 1.8 |
| O=C(O)CC(=O)OC[C@H]1O[C@@H](Oc2cc(O)c3c(=O)c(-c4ccc(O)cc4)coc3c2)[C@H](O)[C@@H](O)[C@@H]1O | β-Xylosidase derived from pectinase G | 0.6 |
| COc1cc2c(=O)c(-c3ccc(O)cc3)coc2cc1O[C@@H]1O[C@H](CO)[C@@H](O)[C@H](O)[C@H]1O | β-Xylosidase derived from pectinase G | 2.4 |

====

In this section we review reported glucoside values for a set of compounds.
# Tested on: Diglycosidase derived from P. multicolor
# measurement_notes: Reactivity toward various isoflavone glycosides (HPLC)
# Assay type: biochemical, Penicillium multicolor
# Set-up: unit not given here
# details: Reaction time 1 h; 55 °C, pH 4.0
# Description: Diglycosidase was diluted with an acetate buffer of pH 4.0 to prepare a 0.75 AU/mL enzyme solution. […] The reaction was carried out at 55° C. and isolation of an aglycon isoflavone from an isoflavone glycoside in the reaction mixture was detected by HLPC at 0, 1, 3, and 6 hours of the reaction. […]
reported_metric: glucoside

| compound | value_measured |
| --- | --- |
| CC(=O)OC[C@H]1O[C@@H](Oc2ccc3c(=O)c(-c4ccc(O)cc4)coc3c2)[C@H](O)[C@@H](O)[C@@H]1O [acetyldaidzin, 6″-O-acetyldaidzin] | 10.4 |
| COc1cc2c(=O)c(-c3ccc(O)cc3)coc2cc1O[C@@H]1O[C@H](COC(C)=O)[C@@H](O)[C@H](O)[C@H]1O [acetylglycitin, 6″-O-acetylglycitin] | 2 |
| O=C(O)CC(=O)OC[C@H]1O[C@@H](Oc2cc(O)c3c(=O)c(-c4ccc(O)cc4)coc3c2)[C@H](O)[C@@H](O)[C@@H]1O [malonylgenistin, 6″-O-malonylgenistin] | 25.8 |
| O=c1c(-c2ccc(O)cc2)coc2cc(O[C@@H]3O[C@H](CO)[C@@H](O)[C@H](O)[C@H]3O)ccc12 [daidzin] | 29.9 |
| CC(=O)OC[C@H]1O[C@@H](Oc2cc(O)c3c(=O)c(-c4ccc(O)cc4)coc3c2)[C@H](O)[C@@H](O)[C@@H]1O [acetylgenistin, 6″-O-acetylgenistin] | 0.2 |
| O=C(O)CC(=O)OC[C@H]1O[C@@H](Oc2ccc3c(=O)c(-c4ccc(O)cc4)coc3c2)[C@H](O)[C@@H](O)[C@@H]1O [malonyldaidzin, 6″-O-malonyldaidzin] | 49.2 |
